# Target under test: human recombinant H-PGDS (Homo sapiens, UniProt O60760)
# Sequence (O60760 whole entry): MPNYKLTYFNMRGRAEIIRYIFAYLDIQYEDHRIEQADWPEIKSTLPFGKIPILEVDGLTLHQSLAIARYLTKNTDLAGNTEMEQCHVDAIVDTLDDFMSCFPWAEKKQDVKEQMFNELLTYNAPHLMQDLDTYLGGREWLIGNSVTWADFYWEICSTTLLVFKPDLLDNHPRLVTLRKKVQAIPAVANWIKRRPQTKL
# Assay summary: Fluorescence Intensity h-PGDS TBA Enzyme Assay
# Format: biochemical
# Reported conditions: 1:175,000 human recombinant H-PGDS, highest inhibitor concentration typically 1 μM
Assay readout: pIC50
# pIC50 = -log10(concentration in molar units)

Example entries begin here.
{"Compound": "O=C(NCC1C(=O)Nc2ccc(F)cc21)c1ccc(-c2cccc(F)c2)nc1 (stereo not drawn) [Example 534]", "pIC50": 8.98}
{"Compound": "O=C(NCc1cccc(F)c1)c1ccc(-c2ccccc2)nc1 [Example 346, N-(3-Fluorobenzyl)-6-phenylnicotinamide]", "pIC50": 8.39}
{"Compound": "O=C(CNC(=O)c1ccc(-c2cccc(F)c2)nc1)OCc1ccccc1 [Example 418]", "pIC50": 7.02}
{"Compound": "COC(=O)CNC(=O)[C@H](C)NC(=O)c1ccc(-c2ccccc2)nc1 [Example 348]", "pIC50": 7.61}

For O=C(NCCn1nnc2ccccc21)c1ccc(-c2cccc(F)c2)nc1 [Example 82] , write its pIC50.
7.67

Kindly indicate its recorded pIC50. Item: CCOC(=O)CC(NC(=O)c1ccc(-c2ccccc2)nc1)c1ccccc1Cl (stereo not drawn) [Example 384]
7.40

Give the reported pIC50 for this compound. CCCOCCCNC(=O)c1cnc(-c2cccc(F)c2)c(Cl)c1 [Example 550]
7.52

Query pIC50 for O=C(NCC1C(=O)Nc2ccccc21)c1ccc(-c2cc(F)cc(F)c2)nc1 (stereo not drawn) [Example 568]
8.58

Indicate its recorded pIC50; the compound in question is Cc1nc(CNC(=O)c2ccc(-c3cccc(F)c3)nc2)cs1 [Example 69]
7.62

---

The molecules listed here are annotated with their IC50.
# Target under test: human recombinant H-PGDS (Homo sapiens, UniProt O60760)
# Assay summary: Fluorescence Intensity h-PGDS TBA Enzyme Assay
# Format: biochemical
# Reported conditions: 1:175,000 human recombinant H-PGDS, highest inhibitor concentration typically 1 μM
# Method: Fluorescence Intensity h-PGDSTBA Enzyme Assay Prostaglandin D Synthase (PGDS) converts the substrate prostaglandin H2 (PGH2) to prostaglandin D2. The depletion of PGH2 was measured via an Fe(II) reduction of the remaining PGH2 to malondialdehyde (MDA) and 12-HHT. […]
Dear colleague, please return just the value in nM, with no unit written.

{"Molecule": "O=C(NC1CCN(Cc2ccc(Cl)c(Cl)c2)C1=O)c1ccc(-c2ccccc2)nc1 (centres unmarked)", "Unit symbol": "nM", "Endpoint result": 16.5}
{"Molecule": "Cc1cccc2c1OCCC2NC(=O)c1ccc(-c2cc(F)cc(F)c2)nc1 (centres unmarked)", "Unit symbol": "nM", "Endpoint result": 8.79}
{"Molecule": "Cc1cccc(-c2ccc(C(=O)NCC(C)(C)CN(C)C)cn2)c1", "Unit symbol": "nM", "Endpoint result": 300}
{"Molecule": "CCOC(=O)C1(NC(=O)c2ccc(-c3cccc(F)c3)nc2)CCOCC1", "Unit symbol": "nM", "Endpoint result": 391}

Provide IC50 value for the following molecule: CC(O)CNC(=O)c1ccc(-c2ccccc2)nc1 (centres unmarked)
13

---

# Target under test: human recombinant H-PGDS (Homo sapiens)
# Assay summary: Fluorescence Intensity h-PGDS TBA Enzyme Assay
# Assay type: biochemical
# Reported conditions: 1:175,000 human recombinant H-PGDS, highest inhibitor concentration typically 1 μM
Assay readout: pIC50
Keep in mind that pIC50 stands for -log10 of concentration in molar terms.

{"Molecule": "CSc1ccc(CNC(=O)c2ccc(-c3cccc(F)c3)nc2)cc1", "pIC50": 7.33}

Fill in reported pIC50 for this entry: COc1cccc(-c2ccc(C(=O)NCC3C(=O)Nc4ccccc43)cn2)c1 (stereo not drawn)
8.12

Provide one value: measured pIC50 of CCC(NC(=O)c1ccc(-c2cccc(F)c2)nc1)c1nn[nH]n1 (stereo not drawn)
7.41

Look up pIC50 of CCOC(=O)CC(NC(=O)c1ccc(-c2cccc(OC)c2)nc1)c1ccc(OC)cc1 (stereo not drawn) and report it.
6.72

Please indicate pIC50 recorded for "Cc1cccc(-c2ccc(C(=O)NCc3ccc(Br)cc3)cn2)c1"
6.67

Indicate the recorded pIC50 value for this molecule: "O=C(NC1CCOCC1)c1ccc(-c2cccc(F)c2)nc1"
8.63

Give pIC50 for the following molecule: "CS(=O)(=O)CCNC(=O)c1ccc(-c2cccc(F)c2)nc1"
7.33

Give the measured pIC50 for "Cc1cccc(-c2ccc(C(=O)NC3CCOCC3)cn2)c1"
7.89

These measurements were taken from patent US20110306597A1.
